# tested.target: UniProtKB P28223
# measurement.notes: cell-based
# Format: cell-based
# measurement.conditions: IP assay, % of Rmax of 5-HT
Counter-ions that a name gives are not always drawn.
Quick list: 5-HT2A Rmax per entry.
Please state the figure in %; there is no need to write the unit.

{"molecule": "COc1cc([C@@H]2CCCNC2)c(OCF)cc1C(F)(F)F", "5-HT2A Rmax [%]": 60}

Query: What value of 5-HT2A Rmax on UniProtKB P28223 does "COc1cc(C(F)(F)F)c(OC)cc1[C@@H]1CCCNC1.Cl" have?
Reply: 74

Query: Which measured 5-HT2A Rmax belongs to "CCSc1cc([C@@H]2CCCNC2)c(OC)cc1C(F)(F)F.Cl" , tested on UniProtKB P28223?
Reply: 95

Query: Could you share what 5-HT2A Rmax was measured for "COc1cc(C(F)(F)F)c(F)cc1[C@@H]1CCCNC1.Cl" , tested on UniProtKB P28223?
Reply: 59

Query: Look up 5-HT2A Rmax with UniProtKB P28223 for this molecule: COc1cc([C@@H]2CCCNC2)c(OC2CC2)cc1C(F)(F)F [Compound 55, hydrochloride]
Reply: 38

Query: Report 5-HT2A Rmax for COc1cc(C(F)(F)F)c(OC)cc1[C@@H]1CNC[C@@H](C)C1.Cl (relative stereo) tested on UniProtKB P28223.
Reply: 61

Query: Record lookup: for UniProtKB P28223, what 5-HT2A Rmax belongs to "CCOc1cc([C@@H]2CCCNC2)c(OC)cc1CC.Cl" ?
Reply: 78

Query: Please provide the recorded 5-HT2A Rmax for CCCCc1cc(OC)c([C@@H]2CCCNC2)cc1OC [Compound 57, hydrochloride] , tested on UniProtKB P28223.
Reply: 62

Reference for the values: patent US11642336B2
